Each entry below carries its recorded FETCH score.
Target: T1, human connexin36 (Cx36) (human, UniProt Q9UKL4 1-321)
T1 construct: whole, on cells; Hemichannel expressed in HEK 293FT cells for FETCH; also called GJD2; not shown: C-terminal fluorescent protein fusion (mEmerald or RFP670 in FETCH)
T1 sequence (looked up): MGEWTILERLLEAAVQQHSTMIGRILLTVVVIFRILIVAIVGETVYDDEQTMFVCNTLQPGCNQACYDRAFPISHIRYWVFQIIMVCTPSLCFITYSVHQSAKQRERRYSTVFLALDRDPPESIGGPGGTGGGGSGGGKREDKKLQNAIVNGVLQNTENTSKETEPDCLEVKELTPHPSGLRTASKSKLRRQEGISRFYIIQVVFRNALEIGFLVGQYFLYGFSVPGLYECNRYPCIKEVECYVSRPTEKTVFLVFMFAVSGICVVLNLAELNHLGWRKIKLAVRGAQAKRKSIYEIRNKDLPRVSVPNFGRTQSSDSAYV
Experiment: FETCH (flow cytometry, % dual-labelled HEK 293FT cells), heterotypic
assayMetric: FETCH score (%)

* Wild-type Connexin34.7 (Cx34.7) of Morone americana (other, In C. elegans it was expressed as GFP or mCherry fusion; also called Cx34.7WT; not shown: C-terminal fluorescent protein fusion (mEmerald or RFP670 in FETCH)) MGEWTILERLLEAAVQQHSTMIGRILLTVVVIFRILIVAIVGETVYEDEQAMFICNTLQPGCNQACYDKAFPISHIRYWVFQIILVCTPSLCFITYSVHQSAKQKDRRYSFLYPIMERDYGGRDGARKLRNINGILVQHGGDGGGGKEEPDCLEVKEIPNAPRGLTHGKSSKVRRQEGISRFYIIQVVFRNALEIGFLAGQYFLYGFSVPGIFECDRYPCLKEVECYVSRPTEKTVFLVFMFAVSGICVVLNLAELNHLGWRKIKAAIRGVQARRKSICEIRKKDMAHLSQPPNLGRTQSSESAYV | 11.9
* Cx35E224K (Morone americana Cx35 mutant E224K) (other, Extracellular loop mutant of the screening library; not shown: C-terminal fluorescent protein fusion (mEmerald or RFP670 in FETCH)) MGEWTILERLLEAAVQQHSTMIGRILLTVVVIFRILIVAIVGETVYDDEQTMFVCNTLQPGCNQACYDKAFPISHIRYWVFQIIMVCTPSLCFITYSVHQSAKQKERRYSTVYLTLDKDQDSLKRDESKKIKNTIVNGVLQNTENSTKEAEPDCLEVKEIPNSAMRTTKSKMRRQEGISRFYIIQVVFRNALEIGFLVGQYFLYGFNVPSVYECDRYPCIKDVKCYVSRPTEKTVFLVFMFAVSGFCVVLNLAELNHLGWRKIKTAVRGVQARRKSIYEIRNKDLPRMSVPNFGRTQSSDSAYV | 0.8

Values compiled from patent US20250186620A1.
